Origin of values: PubChem BioAssay AID1963825

What IC50 was measured for each of the following?
PROTOCOL_NOTES: Anticancer human tumor 997537-175-T-J1-PDC patient-derived colon adenocarcinoma cell line growth inhibition [POLQ]
CONDITION_DETAILS: 997537-175-T-J1-PDC complex spheroid viability, combination with POLQ inhibitors; curve of first compound; second compound 1 µM

Problem: # return recorded IC50 for input CC1COCCN1c1cc(C2(O)CC3CCC(C2)O3)c2cnn(-c3ccn[nH]3)c2n1 (stereo not given) + COC1C(OC(N)=O)C(O)C(Oc2ccc3c(O)c(NC(=O)c4ccc(O)c(CC=C(C)C)c4)c(=O)oc3c2C)OC1(C)C
Result: > 10 µM

Problem: Give recorded IC50. CC[C@@]1(O)C(=O)OCc2c1cc1n(c2=O)Cc2cc3c(CN(C)C)c(O)ccc3nc2-1 + COC1C(OC(N)=O)C(O)C(Oc2ccc3c(O)c(NC(=O)c4ccc(O)c(CC=C(C)C)c4)c(=O)oc3c2C)OC1(C)C
Result: > 0.1 µM

Problem: For COc1cccc2c1C(=O)c1c(O)c3c(c(O)c1C2=O)CC(O)(C(=O)CO)CC3OC1CC(N)C(O)C(C)O1 (stereo not given) + COC1C(OC(N)=O)C(O)C(Oc2ccc3c(O)c(NC(=O)c4ccc(O)c(CC=C(C)C)c4)c(=O)oc3c2C)OC1(C)C , write its IC50.
Result: 3.23 µM

Problem: Please list IC50 recorded for the compound Nc1ccn(C2OC(CO)C(O)C2(F)F)c(=O)n1 (stereo not given) + COC1C(OC(N)=O)C(O)C(Oc2ccc3c(O)c(NC(=O)c4ccc(O)c(CC=C(C)C)c4)c(=O)oc3c2C)OC1(C)C
Result: > 10 µM

Problem: Specify reported IC50 for the compound shown: O=C(c1cc(Cc2n[nH]c(=O)c3ccccc23)ccc1F)N1CCN(C(=O)C2CC2)CC1 + COC1C(OC(N)=O)C(O)C(Oc2ccc3c(O)c(NC(=O)c4ccc(O)c(CC=C(C)C)c4)c(=O)oc3c2C)OC1(C)C
Result: > 10 µM

Problem: Please report IC50 for the following compound: C=CCn1c(=O)c2cnc(Nc3ccc(N4CCN(C)CC4)cc3)nc2n1-c1cccc(C(C)(C)O)n1 + Nc1ccc(C#CCN(C(=O)Cc2ncc(C(F)(F)F)cc2C(F)(F)F)c2ccc(F)cc2)nn1
Result: > 1 µM

Problem: Note down IC50 recorded for Cn1ncnc1[C@H]1c2n[nH]c(=O)c3cc(F)cc(c23)N[C@@H]1c1ccc(F)cc1 + COC1C(OC(N)=O)C(O)C(Oc2ccc3c(O)c(NC(=O)c4ccc(O)c(CC=C(C)C)c4)c(=O)oc3c2C)OC1(C)C
Result: > 0.1 µM

Problem: Tell me measured IC50 for COc1ccc([C@@H](O)c2cc(-c3ncnc4cc(N5CCOCC5)ccc34)c(F)cc2Cl)nn1 + Cc1cccc(N(C)C(=O)C2C(O)CCN2c2nc(C)cc(C(F)(F)F)c2C#N)c1 please.
Result: > 10 µM

Problem: Entry O=C(c1cc(Cc2n[nH]c(=O)c3ccccc23)ccc1F)N1CCN(C(=O)C2CC2)CC1 + Nc1ccc(C#CCN(C(=O)Cc2ncc(C(F)(F)F)cc2C(F)(F)F)c2ccc(F)cc2)nn1 needs its IC50 filled in; supply it.
Result: > 10 µM

Problem: Return the recorded IC50 value; entry: CC1COCCN1c1cc(C2(S(C)(=N)=O)CC2)nc(-c2ccnc3[nH]ccc23)n1 (stereo not given) + Cc1cccc(N(C)C(=O)C2C(O)CCN2c2nc(C)cc(C(F)(F)F)c2C#N)c1
Result: 7.19 µM

====

I'd be grateful if you could share measured viability, T/C for these entries.
PROTOCOL_NOTES: Anticancer human tumor 997537-175-T-J1-PDC cell line growth inhibition [POLQ];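 note: luminescence signal used as a surrogate for viable cells; spheroids exposed to drugs for seven days before readout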
CONDITION_DETAILS: 997537-175-T-J1-PDC complex spheroid viability, combination with POLQ inhibitors; second compound 10 µM; first compound 0.316 µM; stronger effect = lower value
Provide only the numeric value, understood in %.

Problem: Recall and state the measured viability, T/C for CCc1c2c(nc3ccc(O)cc13)-c1cc3c(c(=O)n1C2)COC(=O)[C@]3(O)CC + Cc1cccc(N(C)C(=O)C2C(O)CCN2c2nc(C)cc(C(F)(F)F)c2C#N)c1 .
Result: 5.71

Problem: Determine its reported viability, T/C: COc1cccc2c1C(=O)c1c(O)c3c(c(O)c1C2=O)CC(O)(C(=O)CO)CC3OC1CC(N)C(O)C(C)O1 (stereo not drawn) + Nc1ccc(C#CCN(C(=O)Cc2ncc(C(F)(F)F)cc2C(F)(F)F)c2ccc(F)cc2)nn1
Result: 91.4

Problem: Write down viability, T/C measured for item CC1COCCN1c1cc(-c2ccnn2C)c2ccnc(-c3ccn[nH]3)c2n1 (stereo not drawn) + COC1C(OC(N)=O)C(O)C(Oc2ccc3c(O)c(NC(=O)c4ccc(O)c(CC=C(C)C)c4)c(=O)oc3c2C)OC1(C)C
Result: 44

====

PROTOCOL_NOTES: Anticancer human tumor 997537-175-T-J1-PDC cell line growth inhibition [POLQ];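 note: luminescence signal used as a surrogate for viable cells; spheroids exposed to drugs for seven days before readout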
CONDITION_DETAILS: 997537-175-T-J1-PDC complex spheroid viability, combination with POLQ inhibitors; second compound 0.316 µM; first compound 10 µM; stronger effect = lower value
OUTCOME_MEASURE: viability, T/C (%)
Please state the figure in %; there is no need to write the unit.

Problem: Specify measured viability, T/C for C#Cc1c(F)ccc2cc(O)cc(-c3ncc4c(N5CC6CCC(C5)N6)nc(OCC56CCCN5CC(F)C6)nc4c3F)c12 (stereo not given) + Cc1cccc(N(C)C(=O)C2C(O)CCN2c2nc(C)cc(C(F)(F)F)c2C#N)c1 .
Result: 105

Problem: // Input: CCc1cc2c(N3CCc4c(cc(Cn5ccnc5)cc4-c4cn(C)nc4C(F)(F)F)C3=O)cc(C)nc2c(OC)n1 + Cc1cccc(N(C)C(=O)C2C(O)CCN2c2nc(C)cc(C(F)(F)F)c2C#N)c1 . Output its viability, T/C only.
Result: 60.9

Problem: Please give measured viability, T/C of the following entry: CCc1cc2c(N3CCc4c(cc(Cn5ccnc5)cc4-c4cn(C)nc4C(F)(F)F)C3=O)ccnc2c(OC)n1 + Cc1cccc(N(C)C(=O)C2C(O)CCN2c2nc(C)cc(C(F)(F)F)c2C#N)c1
Result: 65.5

Problem: Give the measured viability, T/C for CC1COCCN1c1cc(C2(S(C)(=N)=O)CC2)nc(-c2ccnc3[nH]ccc23)n1 (stereo not given) + Cc1cccc(N(C)C(=O)C2C(O)CCN2c2nc(C)cc(C(F)(F)F)c2C#N)c1
Result: 49.1

Problem: Provide measured viability, T/C value, entry: CC1COCCN1c1cc(C2(S(C)(=N)=O)CC2)nc(-c2ccnc3[nH]ccc23)n1 (stereo not given) + Nc1ccc(C#CCN(C(=O)Cc2ncc(C(F)(F)F)cc2C(F)(F)F)c2ccc(F)cc2)nn1
Result: 71.7

====

PROTOCOL_NOTES: Anticancer human tumor 997537-175-T-J1-PDC cell line growth inhibition [POLQ];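 note: luminescence signal used as a surrogate for viable cells; spheroids exposed to drugs for seven days before readout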
CONDITION_DETAILS: 997537-175-T-J1-PDC complex spheroid viability, combination with POLQ inhibitors; second compound 1 µM; first compound 0.316 µM; stronger effect = lower value
Protocol: Multicellular complex tumor spheroid response to Polymerase (POL) inhibitors (novobiocin, ART-558, RP6685) in combination with a variety of drugs and investigational agents in selected tumor cell lines The POL inhibitors (novobiocin, ART-558, and RP6685) were evaluated both individually and in combination with standard of care and investigational anticancer small molecules within a complex spheroid model of solid tumors. . […]
Kindly state viability, T/C for each of the entries shown.

Problem: Give viability, T/C for the following compound: CC1COCCN1c1cc(-c2ccnn2C)c2ccnc(-c3ccn[nH]3)c2n1 (stereo not given) + Cc1cccc(N(C)C(=O)C2C(O)CCN2c2nc(C)cc(C(F)(F)F)c2C#N)c1
Result: 48.8%

Problem: Give recorded viability, T/C. C#Cc1c(F)ccc2cc(O)cc(-c3ncc4c(N5CC6CCC(C5)N6)nc(OCC56CCCN5CC(F)C6)nc4c3F)c12 (stereo not given) + Nc1ccc(C#CCN(C(=O)Cc2ncc(C(F)(F)F)cc2C(F)(F)F)c2ccc(F)cc2)nn1
Result: 95.8%

Problem: Return viability, T/C for the following compound: CCc1cc2c(N3CCc4c(cc(Cn5ccnc5)cc4-c4cn(C)nc4C(F)(F)F)C3=O)ccnc2c(OC)n1 + Cc1cccc(N(C)C(=O)C2C(O)CCN2c2nc(C)cc(C(F)(F)F)c2C#N)c1
Result: 100%

Problem: Note down viability, T/C recorded for CNCc1ccc(-c2[nH]c3cc(F)cc4c3c2CCNC4=O)cc1 + Cc1cccc(N(C)C(=O)C2C(O)CCN2c2nc(C)cc(C(F)(F)F)c2C#N)c1
Result: 99%

Problem: Indicate the recorded viability, T/C value for this compound: COc1cc(C2c3cc4c(cc3C(OC3OC5COC(C)OC5C(O)C3O)C3COC(=O)C23)OCO4)cc(OC)c1O (stereo not given) + Cc1cccc(N(C)C(=O)C2C(O)CCN2c2nc(C)cc(C(F)(F)F)c2C#N)c1
Result: 104%

Problem: Supply measured viability, T/C of CC1COCCN1c1cc(C2(O)CC3CCC(C2)O3)c2cnn(-c3ccn[nH]3)c2n1 (stereo not given) + Cc1cccc(N(C)C(=O)C2C(O)CCN2c2nc(C)cc(C(F)(F)F)c2C#N)c1 in your reply.
Result: 43.2%

Problem: Identify measured viability, T/C associated with CC1COCCN1c1cc(C2(O)CC3CCC(C2)O3)c2cnn(-c3ccn[nH]3)c2n1 (stereo not given) + Nc1ccc(C#CCN(C(=O)Cc2ncc(C(F)(F)F)cc2C(F)(F)F)c2ccc(F)cc2)nn1
Result: 63.1%

Problem: # return recorded viability, T/C for entry O=C(Nc1ccc(O)c(NS(=O)(=O)c2ccc(F)cc2)c1)c1ccc(-c2ccccc2)cc1 + COC1C(OC(N)=O)C(O)C(Oc2ccc3c(O)c(NC(=O)c4ccc(O)c(CC=C(C)C)c4)c(=O)oc3c2C)OC1(C)C
Result: 86%

Problem: Check the records and state viability, T/C for O=C(c1cc(Cc2n[nH]c(=O)c3ccccc23)ccc1F)N1CCN(C(=O)C2CC2)CC1 + COC1C(OC(N)=O)C(O)C(Oc2ccc3c(O)c(NC(=O)c4ccc(O)c(CC=C(C)C)c4)c(=O)oc3c2C)OC1(C)C
Result: 110%

Problem: Give the value of viability, T/C reported for the following: Nc1ccn(C2OC(CO)C(O)C2(F)F)c(=O)n1 (stereo not given) + Nc1ccc(C#CCN(C(=O)Cc2ncc(C(F)(F)F)cc2C(F)(F)F)c2ccc(F)cc2)nn1
Result: 84%

Problem: Hello, please tell me recorded viability, T/C for this one: COc1cccc2c1C(=O)c1c(O)c3c(c(O)c1C2=O)CC(O)(C(=O)CO)CC3OC1CC(N)C(O)C(C)O1 (stereo not given) + Cc1cccc(N(C)C(=O)C2C(O)CCN2c2nc(C)cc(C(F)(F)F)c2C#N)c1
Result: 99.8%

Problem: Provide one value: measured viability, T/C of O=C(c1cc(Cc2n[nH]c(=O)c3ccccc23)ccc1F)N1CCN(C(=O)C2CC2)CC1 + Nc1ccc(C#CCN(C(=O)Cc2ncc(C(F)(F)F)cc2C(F)(F)F)c2ccc(F)cc2)nn1
Result: 103%

Problem: Give reported viability, T/C value for CC1COCCN1c1cc(-c2ccnn2C)c2ccnc(-c3ccn[nH]3)c2n1 (stereo not given) + COC1C(OC(N)=O)C(O)C(Oc2ccc3c(O)c(NC(=O)c4ccc(O)c(CC=C(C)C)c4)c(=O)oc3c2C)OC1(C)C
Result: 54.3%

Problem: Recall and state the measured viability, T/C for CCc1cc2c(N3CCc4c(cc(Cn5ccnc5)cc4-c4cn(C)nc4C(F)(F)F)C3=O)cc(C)nc2c(OC)n1 + COC1C(OC(N)=O)C(O)C(Oc2ccc3c(O)c(NC(=O)c4ccc(O)c(CC=C(C)C)c4)c(=O)oc3c2C)OC1(C)C .
Result: 86.4%

Problem: Fill in viability, T/C for record CC(C)n1c(=O)n(C)c2cnc3cc(F)c(-c4ccc(OCCCN5CCCCC5)nc4)cc3c21 + COC1C(OC(N)=O)C(O)C(Oc2ccc3c(O)c(NC(=O)c4ccc(O)c(CC=C(C)C)c4)c(=O)oc3c2C)OC1(C)C
Result: 102%

Problem: Look up viability, T/C of O=C(Nc1ccc(O)c(NS(=O)(=O)c2ccc(F)cc2)c1)c1ccc(-c2ccccc2)cc1 + Cc1cccc(N(C)C(=O)C2C(O)CCN2c2nc(C)cc(C(F)(F)F)c2C#N)c1 and report it.
Result: 94.9%

Problem: Fill in reported viability, T/C for this entry: CNCc1ccc(-c2[nH]c3cc(F)cc4c3c2CCNC4=O)cc1 + COC1C(OC(N)=O)C(O)C(Oc2ccc3c(O)c(NC(=O)c4ccc(O)c(CC=C(C)C)c4)c(=O)oc3c2C)OC1(C)C
Result: 101%

Problem: Indicate its recorded viability, T/C; the compound in question is CCc1c2c(nc3ccc(O)cc13)-c1cc3c(c(=O)n1C2)COC(=O)[C@]3(O)CC + COC1C(OC(N)=O)C(O)C(Oc2ccc3c(O)c(NC(=O)c4ccc(O)c(CC=C(C)C)c4)c(=O)oc3c2C)OC1(C)C
Result: 6.28%

Problem: Complete the entry with viability, T/C for COc1cccc2c1C(=O)c1c(O)c3c(c(O)c1C2=O)CC(O)(C(=O)CO)CC3OC1CC(N)C(O)C(C)O1 (stereo not given) + COC1C(OC(N)=O)C(O)C(Oc2ccc3c(O)c(NC(=O)c4ccc(O)c(CC=C(C)C)c4)c(=O)oc3c2C)OC1(C)C
Result: 88%

Problem: Note down viability, T/C recorded for COc1ccc([C@@H](O)c2cc(-c3ncnc4cc(N5CCOCC5)ccc34)c(F)cc2Cl)nn1 + Nc1ccc(C#CCN(C(=O)Cc2ncc(C(F)(F)F)cc2C(F)(F)F)c2ccc(F)cc2)nn1
Result: 94.7%
